- Test system: PCA (passive cutaneous anaphylaxis) reaction
- Procedure text: Anti-allergic effect: PCA (passive cutaneous anaphylaxis) reaction in rats
- Type: in vivo, rats (Wister-strain, male)
- Reported conditions: Rattus norvegicus, 20 mg/kg, oral, 1 hour before challenge, inhibition of dye leakage
Observation type: inhibition in vivo at 20 mg/kg (%)

[
  {
    "Compound": "Cn1c(=O)c2c(N)ncnc2n(C)c1=O",
    "U": "%",
    "Numeric value": 44.9
  },
  {
    "Compound": "Cn1c(=O)c2cnc(N)nc2n(C)c1=O",
    "U": "%",
    "Numeric value": 53.3
  },
  {
    "Compound": "CNc1ncc2c(=O)n(C)c(=O)n(C)c2n1",
    "U": "%",
    "Numeric value": 29
  },
  {
    "Compound": "Cn1c(=O)c2[nH]cnc2n(C)c1=O [Theophylline, reference compound]",
    "U": "%",
    "Numeric value": 67.3
  }
]

###

- Tested on: PCA (passive cutaneous anaphylaxis) reaction
- Procedure text: Anti-allergic effect: PCA (passive cutaneous anaphylaxis) reaction in rats
- Assay type: in vivo, rats (Wister-strain, male)
- Reported conditions: 100 mg/kg, oral, 1 hour before challenge, control 10.7 ± 1.0
Output Y for Leak of Dye not less than 2 μg/site; output N otherwise.

[
  {
    "Molecule": "CCn1c(=O)c2c(N)ncnc2n(CC)c1=O [compound 10]",
    "Label class": "N"
  },
  {
    "Molecule": "CC(C)Cn1c(=O)n(C)c(=O)c2c(N)ncnc21 [compound 11]",
    "Label class": "Y"
  },
  {
    "Molecule": "Cn1c(=O)c2cnc(N)nc2n(-c2ccccc2)c1=O [compound 7]",
    "Label class": "Y"
  },
  {
    "Molecule": "Cn1c(=O)c2cnc(N)nc2n(C)c1=O [compound 6]",
    "Label class": "N"
  },
  {
    "Molecule": "Cn1c(=O)c2c(N)nc(N)nc2n(C)c1=O [compound 14]",
    "Label class": "N"
  },
  {
    "Molecule": "CNc1ncnc2c1c(=O)n(C)c(=O)n2C [compound 16]",
    "Label class": "N"
  },
  {
    "Molecule": "CC(C)Cn1c(=O)n(C)c(=O)c2cnc(N)nc21 [compound 18]",
    "Label class": "Y"
  },
  {
    "Molecule": "CCn1c(=O)c2cnc(N)nc2n(CC)c1=O [compound 17]",
    "Label class": "Y"
  },
  {
    "Molecule": "Cn1c(=O)c2c(N)ncnc2n(C)c1=O [compound 9]",
    "Label class": "N"
  },
  {
    "Molecule": "Cc1nc(N)c2c(=O)n(C)c(=O)n(C)c2n1 [compound 12]",
    "Label class": "N"
  }
]

###

- Procedure text: Acute toxicity test
- Reported conditions: mouse, in vivo, ip, mice, mortality for 7 days after administration, probit method

[
  {
    "Chem smiles": "Cn1c(=O)c2cnc(N)nc2n(C)c1=O",
    "LD50 at 168 h": "140 mg/kg"
  }
]

###

- Tested on: PCA (passive cutaneous anaphylaxis) reaction
- Procedure text: Anti-allergic effect: PCA (passive cutaneous anaphylaxis) reaction in rats
- Assay type: in vivo, rats (Wister-strain, male)
- Reported conditions: Rattus norvegicus, 100 mg/kg, oral, 1 hour before challenge, inhibition of dye leakage
Some molecules, each annotated with its measured inhibition in vivo at 100 mg/kg.
Observation type: inhibition in vivo at 100 mg/kg (%)

[
  {
    "Chem smiles": "Cn1c(=O)c2cnc(N)nc2n(-c2ccccc2)c1=O",
    "U": "%",
    "Numeric value": 49.5
  },
  {
    "Chem smiles": "Cc1nc(N)c2c(=O)n(C)c(=O)n(C)c2n1",
    "U": "%",
    "Numeric value": 90.7
  },
  {
    "Chem smiles": "CCn1c(=O)c2c(N)ncnc2n(CC)c1=O",
    "U": "%",
    "Numeric value": 85
  },
  {
    "Chem smiles": "Cn1c(=O)c2c(N)ncnc2n(C)c1=O",
    "U": "%",
    "Numeric value": 94.4
  },
  {
    "Chem smiles": "Cn1c(=O)c2c(N)nc(N)nc2n(C)c1=O",
    "U": "%",
    "Numeric value": 82.2
  },
  {
    "Chem smiles": "Cn1c(=O)c2cnc(N)nc2n(C)c1=O",
    "U": "%",
    "Numeric value": 93.5
  },
  {
    "Chem smiles": "CCn1c(=O)c2cnc(N)nc2n(CC)c1=O",
    "U": "%",
    "Numeric value": 77.6
  },
  {
    "Chem smiles": "CC(C)Cn1c(=O)n(C)c(=O)c2cnc(N)nc21",
    "U": "%",
    "Numeric value": 62.6
  },
  {
    "Chem smiles": "CC(C)Cn1c(=O)n(C)c(=O)c2c(N)ncnc21",
    "U": "%",
    "Numeric value": 72.9
  },
  {
    "Chem smiles": "CNc1ncnc2c1c(=O)n(C)c(=O)n2C",
    "U": "%",
    "Numeric value": 84.1
  }
]
